tgt: Type-2 angiotensin II receptor (Homo sapiens)
measurement.protocol: Agonist activity at AT2 receptor (unknown origin) expressed in NG108-15 cells assessed as induction of neurite outgrowth at 10 nM after 3 days by phase contrast microscopy
Assay type: cell-based
Calls of active or inactive are those of the source. No cut-off for these calls is given here.
Would you mind answering with one of these outcomes? 1.0 = active, 0.0 = inactive

Prompt: Returns: the outcome recorded for CCCCOC(=O)NS(=O)(=O)c1ccc(CC(C)C)cc1-c1ccc(Cn2ccnc2)cc1 in this assay.
Completion: 1.0

Prompt: Returns: the outcome recorded for CCCCOC(=O)NS(=O)(=O)c1ccc(CC(C)C)cc1-c1cccc(Cn2ccnc2)c1 in this assay.
Completion: 0.0

Prompt: Returns: the outcome recorded for CCCCOC(=O)NS(=O)(=O)c1cc(CC(C)C)ccc1-c1ccc(Cn2ccnc2)cc1 in this assay.
Completion: 1.0

Prompt: Returns: the outcome recorded for CCCCOC(=O)NS(=O)(=O)c1cc(CC(C)C)ccc1-c1cccc(Cn2ccnc2)c1 in this assay.
Completion: 1.0
